Reference source for all entries: PubChem BioAssay AID463173

System: DeltatarO mutant
assay.remarks: S. aureus survival, RN4220 and DeltatarO strains – OD600, teichoic acid synthesis inhibitors, primary screen (AID 463173)
recorded.conditions: S. aureus RN4220 wild type/DeltatarO growth, OD600, 18 h, active compounds read low, screened at 18.75 µg/mL (by protocol)
Among all 52,000 compounds or so, about 4,300 (8.3%) were called active. Only a selection was taken, and actives are over-represented in it overall.
Measured survival, listed per entry.
Expressed in %, but write only the number.

COc1ccc2c(=O)c(NC(=O)Nc3ccc(F)cc3F)c[nH]c2c1 : 92
COc1ccc(CNC(=O)CCc2nc3cccnc3n2Cc2ccccc2)cc1 : 120
CC(C)C(=O)Nc1nnc2n1CCS2 : 101
CCN(CC)C(=O)Cn1c(=O)n(Cc2ccc(C(=O)NCCc3ccc(OC)c(OC)c3)cc2)c(=O)c2ccccc21 : 104

Below: the item to evaluate.
// query # get_value(readout='survival', item= O=C(O)c1ccc(NC(=O)c2cc(S(=O)(=O)N3CCCCC3)c(Cl)cc2Cl)cc1 )
// result 165

====

System: DeltatarO mutant
assay.remarks: S. aureus survival, RN4220 and DeltatarO strains – OD600, teichoic acid synthesis inhibitors, primary screen (AID 463173)
recorded.conditions: S. aureus RN4220 wild type/DeltatarO growth, OD600, 18 h, screened at 18.75 µg/mL (by protocol)
The campaign covered roughly 52,000 compounds. About 4,300 (8.3%) were called active. Rule as the data show it: active = survival mostly below about 52% (no sharp cut-off); inactive = mostly above about 56%. This excerpt belongs to a sample that is enriched for actives.
Hello, when you answer, please use one of the following outcomes: True for active, False for inactive

CCOC(=O)CNC(=O)Nc1cc(C(=O)NCc2ccccc2OC)ccc1N1CCCC1 : False
CCOC(=O)c1c(C)oc2ncnc(Nc3ccc(OC)cc3OC)c12 : False
Nc1nc(SCC(=O)N(CCO)CCO)nc2sc3c(c12)CCCC3 : False
CCOC(=O)c1cnc2c(ccc3ccccc32)c1Nc1ccccc1OCC : False
COc1ccc(S(=O)(=O)N2CCC(c3nc4ccccc4s3)CC2)cc1OC : False

// query Look up the recorded call for CCOC(=O)c1cnc2c(ccc3ccccc32)c1Nc1ccccc1OC in this test.
// result True

// query Look up the recorded call for Cc1cccc(-c2nnc(N(C(=O)C3CCC3)C(C)C)s2)c1 in this test.
// result False

// query Look up the recorded call for CCOC(=O)c1cnc(NCc2ccccc2OC)c2ccccc12 in this test.
// result False

// query Look up the recorded call for CCCn1cc(S(=O)(=O)c2cc(C)ccc2C)c(=O)c2cc(F)c(N3CCN(CC)CC3)cc21 in this test.
// result False

// query Look up the recorded call for CCCCCCSc1nc(N)c2c3c(sc2n1)CCCC3C (stereo unspecified) in this test.
// result True

// query Look up the recorded call for CC1CCCc2sc3nc(SCC(=O)c4ccc(Br)cc4)nc(N)c3c21 (stereo unspecified) in this test.
// result False

====

Test system: DeltatarO mutant
assay.remarks: S. aureus survival, RN4220 and DeltatarO strains – OD600, teichoic acid synthesis inhibitors, primary screen (AID 463173)
recorded.conditions: S. aureus RN4220 wild type/DeltatarO growth, OD600, 18 h, active compounds read low, screened at 18.75 µg/mL (by protocol)
Out of some 52,000 compounds screened, about 4,300 (8.3%) were called active. Many of the other results were omitted from the sample, so actives are more common in it than they were.
Consider the cut-off 60%. If the recorded survival is strictly smaller, the label is 1; if not, the label is 0.

A selection of reference data follows.
Cc1cc(C)c(NC(=O)Cn2c(=O)c3cccn3c3ccccc32)c(C)c1 : 1
CCOc1ccccc1CNC(=O)c1ccc2nc(CCc3ccccc3)oc2c1 : 0

// query # strict comparison: is reported survival < 60%? input = COc1ccccc1NC(=O)Cn1nc(-c2ccc(C)cc2)c2c(c1=O)CCCC2
// result 1

// query # strict comparison: is reported survival < 60%? input = O=C(CCSCc1cnn(-c2ccccc2)c1-n1cccc1)NCc1ccc(Cl)cc1
// result 0

====

Test system: DeltatarO mutant
assay.remarks: S. aureus survival, RN4220 and DeltatarO strains – OD600, teichoic acid synthesis inhibitors, primary screen (AID 463173)
recorded.conditions: S. aureus RN4220 wild type/DeltatarO growth, OD600, 18 h, active compounds read low, screened at 18.75 µg/mL (by protocol)
The campaign covered roughly 52,000 compounds. About 4,300 (8.3%) were called active. For the sample, actives were picked, then their nearest neighbours and some compounds at random.
recorded.metric: survival (%)
Expressed in %, but write only the number.

CC(=O)Nc1ccc(S(=O)(=O)N(Cc2ccccc2)Cc2ccccc2)cc1 : 54
COC(=O)c1ccc(NC(=O)CN(CCc2ccccc2)S(=O)(=O)c2ccc(OC)cc2)cc1 : 69
O=S(=O)(NC1CCCCC1)c1cc(Cl)ccc1Cl : 96

Below: the item to evaluate.
// query Could you share what survival was measured for COCC(=O)N1CCC(n2nnc3cc(F)ccc32)CC1 , tested on DeltatarO mutant?
// result 53

====

System: DeltatarO mutant
assay.remarks: S. aureus survival, RN4220 and DeltatarO strains – OD600, teichoic acid synthesis inhibitors, primary screen (AID 463173)
recorded.conditions: S. aureus RN4220 wild type/DeltatarO growth, OD600, 18 h, active compounds read low, screened at 18.75 µg/mL (by protocol)
Screen size: about 52,000 compounds; about 4,300 (8.3%) were called active. What follows is part of a selection rich in actives, with near analogues and random picks from the rest.
In this scheme, each record receives a class according to its survival; the ranges are small value (below 60%), mid value (60% to below 80%), large value (80% or more)

A selection of reference data follows.
CCn1c2ccccc2c2cc(CN3CCN(Cc4ccccc4C)CC3)ccc21 : small value
CCCN(C(=O)c1cc2c(s1)-c1ccccc1OC2)c1ccc(C(C)C)cc1 : small value
CCCNS(=O)(=O)c1ccc2[nH]c(=O)[nH]c2c1 : large value
CCc1ccc(OCC2c3cc(OC)c(OC)cc3CCN2C(=O)Cc2ccc(OC)c(OC)c2)cc1 (stereo unspecified) : mid value
Cc1cccc(CCn2c(=O)c3ccccc3n(Cc3ccccc3C)c2=O)c1 : mid value
Cc1cccc(N2CCN(C(=O)C3CCN(S(=O)(=O)c4cn(C)cn4)CC3)CC2)c1C : large value
Cc1c(F)cccc1NC(=O)C1CCCN1S(=O)(=O)c1ccc(F)cc1 (stereo unspecified) : mid value
O=c1[nH]c2ccc(S(=O)(=O)NC3CCCCC3)cc2[nH]1 : mid value
O=C(NCc1ccc(Cl)cc1)c1cc2c(s1)-c1ccccc1SC2 : small value
CCOc1ccc(CCNC(=O)c2cnc3c(-c4ccccc4)c(C)nn3c2C)cc1OCC : small value

// query Hi there! Could you help me figure out the category for CCCN(C(=O)c1cc2c(s1)-c1ccccc1SC2)c1ccccc1F please?
// result small value

// query Hi there! Could you help me figure out the category for CC(C)C(=O)NCC(c1ccc2c(c1)OCO2)N1CCN(c2ccccc2F)CC1 (stereo unspecified) please?
// result mid value

// query Hi there! Could you help me figure out the category for CCCN(C(=O)c1cc2c(=O)n(CC)c3ccccc3c2s1)c1ccccc1F please?
// result mid value

// query Hi there! Could you help me figure out the category for CCC(C(=O)NCc1ccccc1)n1nc(C)c2sc3ccccc3c2c1=O (stereo unspecified) please?
// result mid value

// query Hi there! Could you help me figure out the category for COc1cccc(C(=O)Nc2ccccc2C(=O)OCc2cc(=O)n3c4c(sc3n2)CCCC4)c1 please?
// result small value

// query Hi there! Could you help me figure out the category for CCC(C)NC(=O)CSc1nc2cc3c(cc2c(=O)n1CCCCCC(=O)NCc1ccc2c(c1)OCO2)OCO3 (stereo unspecified) please?
// result large value

// query Hi there! Could you help me figure out the category for COc1ccccc1N1CCN(C(=O)C2CCN(S(=O)(=O)c3cn(C)cn3)CC2)CC1 please?
// result small value

// query Hi there! Could you help me figure out the category for COc1cc(Cl)c(C)cc1NC(=O)CCn1cnc2onc(-c3ccc(F)cc3)c2c1=O please?
// result mid value

// query Hi there! Could you help me figure out the category for COc1ccc(CCCc2nnc(SCC(=O)Nc3ccc(Cl)cc3)o2)cc1 please?
// result large value

// query Hi there! Could you help me figure out the category for Cn1cnc(S(=O)(=O)N2CCC(C(=O)N3CCN(c4ccccc4F)CC3)CC2)c1 please?
// result mid value

====

Test system: DeltatarO mutant
assay.remarks: S. aureus survival, RN4220 and DeltatarO strains – OD600, teichoic acid synthesis inhibitors, primary screen (AID 463173)
recorded.conditions: S. aureus RN4220 wild type/DeltatarO growth, OD600, 18 h, active compounds read low, screened at 18.75 µg/mL (by protocol)
Hit rate of the full screen: of about 52,000 compounds, about 4,300 (8.3%) were called active. The sample as a whole holds a higher share of actives than the screen did.
Consider the cut-off 80%. If the recorded survival is strictly smaller, the label is yes (1); if not, the label is no (0).

A selection of reference data follows.
Cc1nc2c(-c3ccccc3)c(C)nn2c(C)c1CCC(=O)NCc1ccc(F)cc1 : no (0)
CCOc1cc(-c2ccc(OC(=O)c3ccc(OC)cc3)c(OC)c2)cc(=O)c2c(C)oc(C)c12 : yes (1)
O=C(c1ccc2c(c1)N(Cc1c(F)cccc1Cl)C(=O)c1ccccc1S2)N1CCCC1 : yes (1)

Consider now this further compound.
// query # strict comparison: is reported survival < 80%? input = CCOc1cc(-c2ccc(OC(=O)c3ccc(C)cc3)c(OC)c2)cc(=O)c2c(C)oc(C)c12
// result no (0)
